# target entity: NK2 (Homo sapiens, UniProt P21452)
# Sequence (P21452 whole entry): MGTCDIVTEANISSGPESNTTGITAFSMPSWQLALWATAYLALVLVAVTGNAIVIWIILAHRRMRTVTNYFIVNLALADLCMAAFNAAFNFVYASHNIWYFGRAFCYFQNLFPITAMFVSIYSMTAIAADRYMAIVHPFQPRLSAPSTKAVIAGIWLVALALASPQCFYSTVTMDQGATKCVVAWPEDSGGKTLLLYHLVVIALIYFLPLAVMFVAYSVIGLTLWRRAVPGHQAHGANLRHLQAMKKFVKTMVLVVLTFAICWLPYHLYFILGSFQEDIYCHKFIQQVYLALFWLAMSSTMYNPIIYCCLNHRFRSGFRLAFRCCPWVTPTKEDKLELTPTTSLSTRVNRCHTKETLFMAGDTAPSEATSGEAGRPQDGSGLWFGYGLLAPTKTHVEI
# test protocol: Signal transduction (ST), intracellular Ca++ (FLIPR), NK2
# Assay type: cell-based
# experimental conditions: antagonist, read-out: NK2 pIC50 (converted)
measurement type: IC50 (µM)

>  <molecule>
O=C(CN1CCCC1=O)N1CCC2(CC1)CCN([C@H]1CCN(C(=O)c3cc(C(F)(F)F)cc(C(F)(F)F)c3)[C@H](Cc3ccccc3)C1)CC2 [Compound 78]

>  <reading qualifier>
>

>  <result value>
10

$$$$
>  <molecule>
O=C(c1cc(C(F)(F)F)cc(C(F)(F)F)c1)N1CC[C@H](N2CCC3(CC2)CCN(S(=O)(=O)c2cc(Br)c(Br)s2)CC3)C[C@H]1Cc1ccccc1 [Compound 98]

>  <reading qualifier>
>

>  <result value>
10

$$$$
>  <molecule>
Cn1cccc1C(=O)N1CCC2(CC1)CCN([C@H]1CCN(C(=O)c3cc(C(F)(F)F)cc(C(F)(F)F)c3)[C@H](Cc3ccccc3)C1)CC2 [Compound 33]

>  <reading qualifier>
>

>  <result value>
10

$$$$
>  <molecule>
O=C(c1ccoc1)N1CCC2(CC1)CCN([C@H]1CCN(C(=O)c3cc(C(F)(F)F)cc(C(F)(F)F)c3)[C@H](Cc3ccc(F)c(F)c3)C1)CC2 [Compound 140]

>  <reading qualifier>
=

>  <result value>
3.47

$$$$
>  <molecule>
CC(C)S(=O)(=O)N1CCC2(CCN([C@H]3CCN(C(=O)c4cc(C(F)(F)F)cc(C(F)(F)F)c4)[C@H](Cc4ccccc4)C3)CC2)CC1 [Compound 167]

>  <reading qualifier>
=

>  <result value>
2.04

$$$$
>  <molecule>
CS(=O)(=O)c1ccccc1S(=O)(=O)N1CCC2(CCN([C@H]3CCN(C(=O)c4cc(C(F)(F)F)cc(C(F)(F)F)c4)[C@H](Cc4ccccc4)C3)CC2)CC1 [Compound 125]

>  <reading qualifier>
=

>  <result value>
5.13

$$$$
>  <molecule>
O=C(c1cc(C(F)(F)F)cc(C(F)(F)F)c1)N1CC[C@H](N2CCC3(CC2)CCN(S(=O)(=O)c2ccccc2)CC3)C[C@H]1Cc1ccccc1 [Compound 102]

>  <reading qualifier>
>

>  <result value>
10

$$$$
>  <molecule>
O=C1OC(CC(=O)N2CCC3(CC2)CCN([C@H]2CCN(C(=O)c4cc(C(F)(F)F)cc(C(F)(F)F)c4)[C@H](Cc4ccccc4)C2)CC3)c2ccccc21 (some centres unmarked) [Compound 82]

>  <reading qualifier>
=

>  <result value>
2

$$$$
>  <molecule>
O=C(C1CCN(C(=O)c2cc(C(F)(F)F)cc(C(F)(F)F)c2)C(Cc2ccccc2)C1)N1CCC2(CCN(Cc3ccccc3)CC2)CC1 (centres unmarked) [Compound 185]

>  <reading qualifier>
=

>  <result value>
5.5

$$$$
>  <molecule>
C/C(=C\C(=O)N1CCC2(CC1)CCN([C@H]1CCN(C(=O)c3cc(C(F)(F)F)cc(C(F)(F)F)c3)[C@H](Cc3ccccc3)C1)CC2)C(F)(F)F [Compound 86]

>  <reading qualifier>
>

>  <result value>
10

$$$$
